biological target: acetylcholine receptor; assay: SPR, AchR immobilised on CM5 chip, peptide 10 uM
Please mark criterion met if the recorded Binding affinity (RU) is equal to or greater than 30 RU, and criterion not met if it falls below.

## Task Decide: Binding affinity (RU) of RRCTAK [6mer-1-992] >= 30 RU?
## Result criterion not met

## Task Field entry: KRFAKR [6mer-1-1025]
## Result criterion met

## Task How about this binder: KRCHHR [6mer-1-995]
## Result criterion met

## Task // repeat for RRYWEK [6mer-1-979] and report
## Result criterion met

## Task Now consider RIKVKK [6mer-2-645] and answer again.
## Result criterion not met

## Task Now the same for RRKNNR [6mer-1-1037]
## Result criterion met

Taken from patent US20250011363A1.
